// data source = patent US6784175B2

Give measured Ki for each item. Keep answers brief.
- target: (+)-MK801 binding site of the ionotropic NMDA receptor
- protocol: (3H)-(+)-MK801 receptor bonding test on rat cerebral membrane homogenates
- conditionSummary: calculated from IC50 by Cheng-Prusoff equation; 1 nmol/l (3H)-(+)-MK801; rat brain membrane homogenate; hydrochloride
- Protocol: Research to determine the NMDA antagonistic effect of each compound in general formula I was carried out on cerebral membrane homogenates (homogenate of rat brain without cerebellum, pons and medulla oblongata taken from male Wistar rats (Charles River, Sulzfeld, Germany)). […]
Counter-ions that a name gives are not always drawn.
Give the quantity in µM, number only.

## Task # get_value(readout='Ki', item= Cc1ccccc1C(C1CCCCC1(O)CCc1cccc(Cl)c1)N(C)C.Cl (stereo not drawn) [Example 16, hydrochloride] )
## Result 1.9

## Task Need Ki of Cc1ccccc1C(C1CCCCC1(O)CCc1ccccc1Cl)N(C)C (single isomer, unassigned; (+)) [Example 49, hydrochloride] , thanks.
## Result 1.3

## Task Need Ki, item CN(C)C(c1ccccc1Cl)C1CCCCC1(O)CCc1ccccc1F.Cl (single isomer, unassigned; (+)) [Example 53, hydrochloride]
## Result 0.5

----------
propertyMeasured: melting point

## Task Endpoint output: melting point of Cl.OC1(CCc2ccccc2)CCCCC1C(c1ccccc1)N1CCCCC1 (centres unmarked) [Example 14] . Value?
## Result 127 °C

## Task Entry under review: CN(C)C(c1ccccc1)C1CCCCC1(O)CCc1ccccc1F.Cl (centres unmarked) [Example 7] . Reported melting point?
## Result 95 °C

## Task Looking for the measured melting point of Cc1ccccc1C(C1CCCCC1(O)CCc1ccccc1Cl)N(C)C.Cl (centres unmarked) [Example 15] , can you help?
## Result 190 to 194 °C

## Task # get_value(readout='melting point', item= CN(C)C(c1ccccc1Cl)C1CCCCC1(O)CCc1ccccc1F.Cl (centres unmarked) [Example 10] )
## Result 162 to 163 °C

## Task # lookup: melting point of CN(C)C(c1ccccc1Cl)C1CCCCC1(O)CCc1ccc(F)cc1.Cl (centres unmarked) [Example 9]
## Result 170 °C

----------
- System: (+)-MK801 binding site of the ionotropic NMDA receptor
- protocol: (3H)-(+)-MK801 receptor bonding test on rat cerebral membrane homogenates
- conditionSummary: 10 μmol/l compound; 1 nmol/l (3H)-(+)-MK801; rat brain membrane homogenate; triple determinations; hydrochloride, 10 µM
- Protocol: Research to determine the NMDA antagonistic effect of each compound in general formula I was carried out on cerebral membrane homogenates (homogenate of rat brain without cerebellum, pons and medulla oblongata taken from male Wistar rats (Charles River, Sulzfeld, Germany)). […]
Where a name gives a salt, the structure may show the parent alone.
propertyMeasured: Percentage inhibition of (3H)-(+)-MK801 binding at 10 μM (%)
Supply the numeric figure in %, leaving out any unit text.

## Task Quick one: Percentage inhibition of (3H)-(+)-MK801 binding at 10 μM for CN(C)C(c1ccccc1)C1CCCCC1(O)CCCc1ccccc1.Cl (single isomer, unassigned; (-)) [Example 50] ?
## Result 87

## Task May I ask what Percentage inhibition of (3H)-(+)-MK801 binding at 10 μM has been recorded for CN(C)C(c1ccccc1Cl)C1CCCCC1(O)CCc1ccccc1F.Cl (single isomer, unassigned; (+)) [Example 53] ?
## Result 104

## Task Suppose we examine the molecule Cc1ccccc1C(C1CCCCC1(O)CCc1ccccc1Cl)N(C)C (single isomer, unassigned; (-)) [Example 48, hydrochloride] ; what Percentage inhibition of (3H)-(+)-MK801 binding at 10 μM value has been reported?
## Result 99

----------
- Test system: (+)-MK801 binding site of the ionotropic NMDA receptor
- protocol: (3H)-(+)-MK801 receptor bonding test on rat cerebral membrane homogenates
- conditionSummary: 10 μmol/l compound; 1 nmol/l (3H)-(+)-MK801; rat brain membrane homogenate; triple determinations
Given measured Percentage inhibition of (3H)-(+)-MK801 binding at 10 μM, output True if it is greater than or equal to 90% and False if not.

## Task Check this compound for Percentage inhibition of (3H)-(+)-MK801 binding at 10 μM at or above 90%: Cc1ccccc1C(C1CCCCC1(O)CCc1ccccc1Cl)N(C)C.Cl (centres unmarked)
## Result True

## Task Hi team, for CN(C)C(c1ccccc1)C1CCCCC1(O)CCc1ccccc1Cl.Cl (centres unmarked) , is the recorded Percentage inhibition of (3H)-(+)-MK801 binding at 10 μM at or above 90%?
## Result False

## Task In plain terms: is recorded Percentage inhibition of (3H)-(+)-MK801 binding at 10 μM at least 90% for Cc1ccccc1C(C1CCCCC1(O)CCc1ccccc1)N(C)C.Cl (centres unmarked) ?
## Result True

## Task Kindly determine if Percentage inhibition of (3H)-(+)-MK801 binding at 10 μM recorded for Cc1ccccc1CCC1(O)CCCCC1C(c1ccccc1Cl)N(C)C.Cl (centres unmarked) is above or exactly 90%.
## Result True

## Task Given CN(C)C(c1ccccc1)C1CCCCC1(O)CCc1cccc(Cl)c1.Cl (centres unmarked) , state whether its Percentage inhibition of (3H)-(+)-MK801 binding at 10 μM is at least 90%.
## Result False

## Task Does the reported Percentage inhibition of (3H)-(+)-MK801 binding at 10 μM for CN(C)C(c1ccc(F)cc1Cl)C1CCCCC1(O)CCc1ccccc1Cl.Cl (centres unmarked) fall at or above the 90% mark?
## Result False

----------
- target: (+)-MK801 binding site of the ionotropic NMDA receptor
- protocol: (3H)-(+)-MK801 receptor bonding test on rat cerebral membrane homogenates
- conditionSummary: calculated from IC50 by Cheng-Prusoff equation; 1 nmol/l (3H)-(+)-MK801; rat brain membrane homogenate
propertyMeasured: pKi
Answer as the number alone; pKi is minus log10 of concentration in mol/L.

## Task Entry under review: CN(C)C(c1ccccc1)C1CCCCC1(O)CCCc1ccccc1.Cl (stereo not shown) [Example 6, hydrochloride] . Reported pKi?
## Result 5.59

## Task GET /values?readout=pKi&item= CN(C)C(c1ccccc1C(F)(F)F)C1CCCCC1(O)CCc1ccccc1Cl.Cl (stereo not shown) [Example 46, hydrochloride]
## Result 5.72

## Task For CN(C)C(c1ccccc1F)C1CCCCC1(O)CCc1ccccc1.Cl (stereo not shown) [Example 8, hydrochloride] , what is its reported pKi?
## Result 5.80

## Task Which pKi reading was recorded for the compound CN(C)C(c1ccccc1C(F)(F)F)C1CCCCC1(O)CCc1ccccc1F.Cl (stereo not shown) [Example 47, hydrochloride] ?
## Result 5.85

## Task Consider the compound shown here: Cc1ccccc1C(C1CCCCC1(O)CCCc1ccccc1)N(C)C.Cl (stereo not shown) [Example 45, hydrochloride] What is its recorded pKi?
## Result 5.74

## Task Entry Cc1cccc(C(C2CCCCC2(O)CCc2ccccc2Cl)N(C)C)c1.Cl (stereo not shown) [Example 20, hydrochloride] has what pKi?
## Result 5.37

## Task # query: pKi of entry CN(C)C(c1ccccc1C(F)(F)F)C1CCCCC1(O)CCc1ccccc1.Cl (stereo not shown) [Example 27, hydrochloride]
## Result 5.38

## Task Fill in: pKi of CN(C)C(c1ccccc1)C1CCCCC1(O)CCc1ccccc1.Cl (stereo not shown) [Example 1, hydrochloride] is ___
## Result 5.42

## Task What does the record list as pKi for CN(C)C(c1ccccc1Cl)C1CCCCC1(O)CCc1ccccc1.Cl (stereo not shown) [Example 2, hydrochloride] ?
## Result 5.77

## Task Please give the measured pKi for this compound: Cc1ccccc1C(C1CCCCC1(O)CCc1ccc(F)cc1)N(C)C.Cl (stereo not shown) [Example 18, hydrochloride]
## Result 5.21

## Task # lookup: pKi of Cc1ccccc1CCC1(O)CCCCC1C(c1ccccc1F)N(C)C.Cl (stereo not shown) [Example 43, hydrochloride]
## Result 5.85

## Task pKi for CN(C)C(c1ccccc1Cl)C1CCCCC1(O)CCc1ccccc1Cl.Cl (stereo not shown) [Example 33, hydrochloride] ?
## Result 6.22

## Task Given the entry CN(C)C(c1ccccc1)C1CCCCC1(O)CCc1ccccc1F.Cl (stereo not shown) [Example 7, hydrochloride] , report its measured pKi.
## Result 5.96

## Task Name the recorded pKi for CN(C)C(c1ccccc1Br)C1CCCCC1(O)CCCc1ccccc1.Cl (stereo not shown) [Example 40, hydrochloride] .
## Result 5.72

## Task Query: pKi; subject: Cl.OC1(CCc2ccccc2)CCCCC1C(c1ccccc1)N1CCCCC1 (stereo not shown) [Example 14, hydrochloride]
## Result 5.55

## Task Consider the compound shown here: CN(C)C(c1ccccc1Br)C1CCCCC1(O)CCc1ccccc1Cl.Cl (stereo not shown) [Example 32, hydrochloride] What is its recorded pKi?
## Result 6.15

----------
Exercise: for every item that follows, state its recorded melting point.
Give just the number in °C; leave the unit off.

## Task Any idea what melting point was measured for CN(C)C(c1ccccc1F)C1CCCCC1(O)CCc1ccccc1Cl.Cl (stereo not drawn) ?
## Result 213

## Task Suppose we examine the molecule CN(C)C(c1ccccc1)C1CCCCC1(O)CCCc1ccccc1.Cl (stereo not drawn) ; what melting point value has been reported?
## Result 90

## Task Can you look up the measured melting point of CN(C)C(c1ccccc1)C1CCCCC1(O)CCc1ccccc1Cl.Cl (stereo not drawn) for me?
## Result 152

## Task // query melting point value for entry CN(C)C(c1ccccc1)C1CCCCC1(O)CCc1ccccc1.Cl (stereo not drawn)
## Result 100

## Task Quick check: melting point of CN(C)C(c1ccccc1Cl)C1CCCCC1(O)CCc1ccccc1.Cl (stereo not drawn) ?
## Result 110

## Task melting point lookup needed for Cc1ccccc1C(C1CCCCC1(O)CCc1ccccc1Cl)N1CCCC1.Cl (stereo not drawn) , thanks.
## Result 155

## Task Which value of melting point has been reported for CN(C)C(c1ccccc1)C1CCCCC1(O)CCc1cccc(Cl)c1.Cl (stereo not drawn) in the records?
## Result 95

## Task Would you mind telling me what melting point value was observed for COc1cccc(C(C2CCCCC2(O)CCc2ccccc2)N(C)C)c1.Cl (stereo not drawn) ?
## Result 90
